Target: GCN2 (Homo sapiens, UniProt Q9P2K8)
Construct: expressed as a truncated version (192-1024) in fusion after a glutathione S-transferase tag; purchased SignalChem E12-11G
Sequence (Q9P2K8 192-1024): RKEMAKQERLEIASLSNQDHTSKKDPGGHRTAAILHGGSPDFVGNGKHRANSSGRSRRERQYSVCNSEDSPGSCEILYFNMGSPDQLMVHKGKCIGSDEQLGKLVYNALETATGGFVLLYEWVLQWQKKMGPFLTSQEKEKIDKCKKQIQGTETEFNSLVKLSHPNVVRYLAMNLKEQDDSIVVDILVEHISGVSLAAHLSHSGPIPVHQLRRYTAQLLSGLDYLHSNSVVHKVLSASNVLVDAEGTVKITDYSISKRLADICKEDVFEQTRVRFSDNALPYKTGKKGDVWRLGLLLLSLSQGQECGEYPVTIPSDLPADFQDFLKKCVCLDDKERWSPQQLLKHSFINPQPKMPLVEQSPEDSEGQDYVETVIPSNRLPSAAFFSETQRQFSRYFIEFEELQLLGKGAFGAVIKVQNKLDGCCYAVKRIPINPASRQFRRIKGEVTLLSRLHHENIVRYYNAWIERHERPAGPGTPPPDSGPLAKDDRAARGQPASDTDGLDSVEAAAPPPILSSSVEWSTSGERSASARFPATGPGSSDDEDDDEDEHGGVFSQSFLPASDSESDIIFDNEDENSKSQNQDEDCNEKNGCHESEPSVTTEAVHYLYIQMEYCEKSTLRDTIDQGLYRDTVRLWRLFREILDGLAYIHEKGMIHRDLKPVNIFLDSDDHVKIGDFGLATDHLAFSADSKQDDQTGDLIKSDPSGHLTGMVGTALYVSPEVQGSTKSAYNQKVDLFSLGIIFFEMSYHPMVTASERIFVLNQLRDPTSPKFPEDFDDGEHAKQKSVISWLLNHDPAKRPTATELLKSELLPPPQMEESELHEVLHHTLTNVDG
Assay: In vitro phosphorylation assay: GCN2 activation (auto-phosphorylation)
Assay type: biochemical
Settings: single dose of 100 µM, compared to DMSO
observed property: decrease in GCN2 auto-phosphorylation

[[record]]
compound = "CC1=C(/C=C/C(C)=C/C=C/C(C)=C/C(=O)O)C(C)(C)CCC1 [NSC122758, Tretinoin]"
reported_measurement = "no impact"

[[record]]
compound = "CNCc1ccc(-c2[nH]c3cc(F)cc4c3c2CCNC4=O)cc1 [NSC756644, Rucaparib phosphate]"
reported_measurement = "~80%"

[[record]]
compound = "CC1(C)CCC(CN2CCN(c3ccc(C(=O)NS(=O)(=O)c4ccc(NCC5CCOCC5)c([N+](=O)[O-])c4)c(Oc4cnc5[nH]ccc5c4)c3)CC2)=C(c2ccc(Cl)cc2)C1 [NSC766270, Venetoclax]"
reported_measurement = "no impact"

